These entries and their values trace back to patent US10703746B2.

pIC50: recorded values
EXPERIMENTAL_TARGET: IDH1 R132H (Homo sapiens, UniProt O75874, R132H)
Sequence (O75874 whole entry R132H): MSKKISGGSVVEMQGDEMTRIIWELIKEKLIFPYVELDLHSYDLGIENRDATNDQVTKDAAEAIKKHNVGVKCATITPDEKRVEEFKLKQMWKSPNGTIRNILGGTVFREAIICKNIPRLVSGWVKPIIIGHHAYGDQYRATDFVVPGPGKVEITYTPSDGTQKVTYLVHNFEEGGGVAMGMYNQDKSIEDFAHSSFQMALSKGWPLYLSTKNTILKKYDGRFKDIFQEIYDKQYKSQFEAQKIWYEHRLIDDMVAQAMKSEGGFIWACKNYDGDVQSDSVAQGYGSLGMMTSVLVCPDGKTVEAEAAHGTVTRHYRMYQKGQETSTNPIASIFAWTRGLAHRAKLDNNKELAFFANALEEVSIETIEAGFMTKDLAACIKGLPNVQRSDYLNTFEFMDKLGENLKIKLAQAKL
ASSAY_SUMMARY: IDH1 R132H enzymatic assay (NADPH depletion coupled to diaphorase/resazurin)
Assay type: biochemical
SETTINGS: enzymatic inhibition, IDH1 R132H
pIC50: −log10 of the molar value.

Q) Respond only with pIC50 recorded for CCc1cccc(CC)c1-n1c(C=C(C)C)c(C(=O)N2CCNCC23COC3)cc(-c2nc(-c3ccc(Cl)cc3)cs2)c1=O [Compound 443]
A) 6.00 to 6.52

Q) Respond only with pIC50 recorded for CCc1cccc(CC)c1-n1c(C=C(C)C)c(C(=O)N2CCNCC2)cc(-c2nc(-c3ccc(OC4CC4)cc3)cs2)c1=O [Compound 605]
A) > 6.52

----------
EXPERIMENTAL_TARGET: IDH1 R132H (Homo sapiens, UniProt O75874, R132H)
ASSAY_SUMMARY: IDH1 R132H enzymatic assay (NADPH depletion coupled to diaphorase/resazurin)
Format: biochemical
SETTINGS: IDH1 R132H enzymatic inhibition, IC50 class
Method: Assays were conducted in a 1536-well black solid-bottom plate with a final assay volume of 9 μL. Specifically, for IDH1 R132H, 3 μL of enzyme (4 mM β-ME, 0.0005 mg/mL IDH1 R132H, 150 mM NaCl, 20 mM Tris pH 7.5, 10 mM MgCl2, 0.05% BSA) were added to the plate, followed by the addition of 23 nL of test compound in DMSO. […]
IC50: recorded values

molecule="CCc1cccc(CC)c1-n1c(C)c(C(=O)NC2CCC(O)CC2)cc(-c2nc(-c3ccc(Cl)cc3)cs2)c1=O (stereo not drawn)" recorded_measurement="1000 to 5000 nM"
molecule=CCc1cccc(CC)c1-n1c(C)c(C(=O)N2CCN(C)CC2)cc(-c2nc(-c3ccc(Cl)cc3)cs2)c1=O recorded_measurement="1000 to 5000 nM"
molecule=CCc1cccc(CC)c1-n1c(C)c(C(=O)OC)cc(-c2nc(-c3ccc(Cl)cc3)cs2)c1=O recorded_measurement="> 20000 nM"
molecule=Cc1cc(C#N)c(-n2c3c(cc(-c4nc(-c5ccc(Cl)cc5)cs4)c2=O)C(=O)CC(C)(C)C3)s1 recorded_measurement="300 to 1000 nM"
molecule=CNc1ccccc1-n1c2c(cc(-c3nc(-c4ccc(Cl)cc4)cs3)c1=O)C(=O)CC(C)(C)C2 recorded_measurement="1000 to 5000 nM"

Now examine the next entry.
Q) Given CCc1ncc(F)cc1-n1c(C=C(C)C)c(C(=O)N2CCNCC2)cc(-c2nc(-c3ccc(C(F)(F)F)nc3)cs2)c1=O , report its IC50 on IDH1 R132H (Homo sapiens, UniProt O75874, R132H).
A) 300 to 1000 nM

----------
pIC50: recorded values
EXPERIMENTAL_TARGET: IDH1 R132C (Homo sapiens, UniProt O75874, R132C)
Sequence (O75874 whole entry R132C): as the sequence (O75874 whole entry R132H) above, with H132C counted along it
ASSAY_SUMMARY: IDH1 R132C enzymatic assay (NADPH depletion coupled to diaphorase/resazurin)
Type: biochemical
SETTINGS: enzymatic inhibition, IDH1 R132C
Procedure: Assays were conducted in a 1536-well black solid-bottom plate with a final assay volume of 9 μL. For IDH1 R132C, 3 μL of enzyme (0.00032 mg/mL IDH1 […], 10% glycerol, 50 mM potassium phosphate pH 6.5, 5 mM MgCl2, 0.03% BSA) were added to the plate, followed by the addition of 23 nL of test compound in DMSO. […]
pIC50: −log10 of the molar value.

# example entries with known answers
molecule=CC(C)=Cc1c(C(=O)N2CCNCC2)cc(-c2nc(-c3ccc(Cl)cc3)cs2)c(=O)n1-c1cc(F)ccc1OC(C)C recorded_measurement="6.00 to 6.52"
molecule=CCc1cccc(CC)c1-n1c(C=C(C)C)c(C(=O)N2CCNCC2)cc(-c2nc(-c3ccc(C(F)(F)F)cc3)cs2)c1=O recorded_measurement="> 6.52"
molecule="CCc1cccc(CC)c1-n1c(C=C(C)C)c(C(=O)N2CCNCC2C(=O)O)cc(-c2nc(-c3ccc(Cl)cc3)cs2)c1=O (stereo not shown)" recorded_measurement="> 6.52"
molecule=CCc1cccc(CC)c1-n1c(CC(C)C)c(C(=O)N2CCNCC2)cc(-c2nc(-c3ccc(Cl)c(F)c3)c(C)s2)c1=O recorded_measurement="> 6.52"
molecule=CCOc1ccc(-c2csc(-c3cc(C(=O)N4CCNCC4)c(C=C(C)C)n(-c4c(CC)cccc4CC)c3=O)n2)cc1 recorded_measurement="> 6.52"

Q) Respond only with pIC50 recorded for CCc1cccc(CC)c1-n1c2c(cc(-c3nc(-c4ccc(Cl)cc4)cs3)c1=O)C(=O)N1CCCCC21 (stereo not shown)
A) 6.00 to 6.52

Q) Respond only with pIC50 recorded for CCc1cccc(CC)c1-n1c(C=C(C)C)c(C(=O)N2CCN[C@H](C)C2)cc(-c2nc(-c3ccc(C(F)(F)F)cc3)cs2)c1=O
A) > 6.52

Q) Respond only with pIC50 recorded for CCOc1ccc(C)cc1-n1c(C=C(C)C)c(C(=O)N2CCNCC2)cc(-c2nc(-c3ccc(C(F)(F)F)nc3)cs2)c1=O
A) > 6.52

Q) Respond only with pIC50 recorded for COc1ccc(C(N)=O)cc1-n1c2c(cc(-c3nc(-c4ccc(Cl)cc4)cs3)c1=O)C(=O)CC(C)(C)C2
A) 5.30 to 6.00

Q) Respond only with pIC50 recorded for CC(C)=Cc1c(C(=O)N2CCNCC2)cc(-c2nc(-c3ccc(Cl)cc3)cs2)c(=O)n1-c1cc(F)ccc1Cl
A) > 6.52
